Tested on: HeLa cells
Test: Cell cycle assay in HeLa cells
Format: cell-based, human
Conditions: HeLa cells, 150 nM oligomeric compound, 24 hours, relative to untreated control (UTC = 100)
In the oligonucleotide strings, read from the 5' end, every base follows the letter of its sugar. An asterisk marks phosphorothioate; unmarked linkages are phosphodiester. Other units and linkages are bracketed, terminal groups are in braces. A string of capitals states the bases alone. e = 2'-O-(2-methoxyethyl) (MOE); [5mC] = 5-methylcytosine; d = 2'-deoxy (DNA)
# reported % cells in cell cycle phase subG1; entries follow
Write the answer as a number in %, unit excluded.

Example substances with recorded % cells in cell cycle phase subG1:
340350 (antisense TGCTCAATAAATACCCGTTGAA; all 2'-MOE, all phosphorothioate, methylation of C not given here) [compound 340350]; 218
327944 (antisense eA*eA*eA*eG*eT*eG*eT*e[5mC]*eA*eG*eA*eT*eA*e[5mC]*eG*eG*eT*eG*eT*eG*eG) [compound 327944]; 165
328397 (antisense eT*eT*eG*eA*eT*d[5mC]*d[5mC]*dA*dT*dA*dT*dG*d[5mC]*dA*dA*e[5mC]*eA*eA*eG*eG) [compound 328397]; 134
338666 (antisense TCACGTGGAGAGGAGTTAAA; all 2'-MOE, all phosphorothioate, methylation of C not given here) [compound 338666]; 235
328687 (eG*e[5mC]*eT*eT*e[5mC]*d[5mC]*d[5mC]*dA*dG*d[5mC]*dG*dG*d[5mC]*d[5mC]*dT*eA*eT*eA*eG*eT; antisense) [compound 328687]; 231

Query :: What reported % cells in cell cycle phase subG1 corresponds to 338741 (antisense GCTTCACAATTAGACCATCC; all 2'-MOE, all phosphorothioate, methylation of C not given here) [compound 338741] on HeLa cells?
Result :: 157

Query :: What reported % cells in cell cycle phase subG1 corresponds to 328749 (antisense e[5mC]*eA*eG*e[5mC]*e[5mC]*dT*dG*d[5mC]*d[5mC]*dA*d[5mC]*d[5mC]*dG*d[5mC]*d[5mC]*eG*e[5mC]*eT*eT*eT) [compound 328749] on HeLa cells?
Result :: 312

Query :: What reported % cells in cell cycle phase subG1 corresponds to 328362 (eT*eG*eT*eG*eT*dT*dT*dT*d[5mC]*dT*dG*dA*d[5mC]*dT*d[5mC]*eA*eG*eT*e[5mC]*eA) [compound 328362] on HeLa cells?
Result :: 114

* * *

System: PPARγ
Test: PPARγ mRNA expression in adipocytes (real-time PCR)
Assay type: cell-based, human
Details: differentiating adipocytes transfected with oligomeric compound; Table 75
REPORTED PROPERTY: PPAR gamma mRNA

Example substances with recorded PPAR gamma mRNA:
346694 (AACCCAUGGAAUUCAGUUCUCA; all 2'-MOE, all phosphorothioate, methylation of C and T or U not given here) [compound 346694]; 32 percentage of untreated control (UTC)
346686 (CUUCAGUUAUCACAGUACUGUA; all 2'-MOE, all phosphorothioate, methylation of C and T or U not given here) [compound 346686]; 83 percentage of untreated control (UTC)

Turning now to a further substance:
Query :: # input substance: 341801 (antisense CCUAUCUCCCCUCUGGACC; all 2'-MOE, all phosphorothioate, methylation of C and T or U not given here) [compound 341801] ; wanted: its PPAR gamma mRNA
Result :: 82 percentage of untreated control (UTC)

Source: patent US8178506B2
